Values compiled from PubChem BioAssay AID493139.

- ASSAYED_SYSTEM: Alkaline phosphatase, germ cell type (Homo sapiens)
- TEST_SUMMARY: effect of analogs on PLAP-like activity, SAR follow-up, selectivity assay for mouse IAP activator project, biochemical, human placental-like ALPPL2 isozyme (AID 493139)
- CONDITION_DETAILS: purified human placental-like alkaline phosphatase, enzymatic activity
The source made the active and inactive calls. No rule for the calls is given here.
Result category, one only: active, inactive

Completed entries (count: 4):
INSERT INTO measurements (compound, qualitative_label) VALUES
  ('CCN(CC)C(=O)CSc1sc2c(O)cc(=O)[nH]c2c1C#N', 'inactive'),
  ('FC(F)(F)c1cccc(NC(=S)NCCC(c2ccccc2)c2ccccc2)c1', 'active'),
  ('CCOc1ccccc1CNC(=O)CCNS(=O)(=O)c1ccc2[nH]c(=O)oc2c1', 'inactive'),
  ('Cc1csc(NC(=O)CSc2sc3c(O)cc(=O)[nH]c3c2C#N)n1', 'inactive');

Req: What classification did CC(C(=O)NCCc1ccc(O)c(O)c1)N1C(=O)/C(=C\c2ccco2)SC1=S (stereo not given) end up with in this test?
Resp: inactive

Req: What classification did N#Cc1cccc(NC(=O)CCNS(=O)(=O)c2ccc3[nH]c(=O)oc3c2)c1 end up with in this test?
Resp: inactive

Req: What classification did CCOc1cccc(NC(=O)CSc2sc3c(O)cc(=O)[nH]c3c2C#N)c1 end up with in this test?
Resp: inactive

Req: What classification did Cc1ccc(NC(=O)CCNS(=O)(=O)c2ccc3[nH]c(=O)oc3c2)c(C)c1 end up with in this test?
Resp: inactive

Req: What classification did COc1ccc(Cl)cc1NC(=O)CSc1sc2c(O)cc(=O)[nH]c2c1C#N end up with in this test?
Resp: inactive

Req: What classification did COc1ccc(NC(=S)NCCC(c2ccccc2)c2ccccc2)cc1 end up with in this test?
Resp: active
